Provenance of the data: PubChem BioAssay

# assay_info: HepG2 cytotoxicity, primary screen, cytotoxicity control for P. falciparum antimalarial project, cell-based, ATP luminescence (AID 2303);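 further: 0% = DMSO wells and 100% = digitonin-killed cells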
# cond: HepG2 viability, 24-48 h, at 10 µM
Calls of active or inactive are those of the source.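 How the source made its calls: active means inhibition above 50%; inactive means the rest.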
# output must be one of 1.0 = active, 0.0 = inactive

Sample answers from the record:
[[record]]
compound = "Fc1cc(Cl)ccc1Nc1ccnc2cc(-c3scnc3CNCCN3CCOCC3)ccc12"
label_class = 0.0

[[record]]
compound = "CCNc1cc(C(=O)N[C@@H](Cc2ccccc2)[C@H](O)CNC2(CC)CCCCC2)cc(N2CCCCS2(=O)=O)c1"
label_class = 0.0

[[record]]
compound = "c1ccc(C2CCN(Cc3ccc(-c4c[nH]c5nc(NC6CCCC6)ncc45)cc3)CC2)cc1"
label_class = 0.0

[[record]]
compound = "CC(C)NCc1ccc(-c2cccc(NC(=O)c3cccc(Cl)c3)c2)cc1"
label_class = 0.0


We next turn to a different compound, shown below.
Query: Check the results log: what was the call for COc1ccc2nccc([C@@H](O)CN3[C@@H]4CC[C@H]3CC(NCc3ccc5c(n3)NC(=O)CS5)C4)c2n1 (stereo not given in full) ?
Response: 0.0
